study system: PpAChE5 (Pardosa pseudoannulata, UniProt A0A1B1FIV8)
Sequence (A0A1B1FIV8 25-553): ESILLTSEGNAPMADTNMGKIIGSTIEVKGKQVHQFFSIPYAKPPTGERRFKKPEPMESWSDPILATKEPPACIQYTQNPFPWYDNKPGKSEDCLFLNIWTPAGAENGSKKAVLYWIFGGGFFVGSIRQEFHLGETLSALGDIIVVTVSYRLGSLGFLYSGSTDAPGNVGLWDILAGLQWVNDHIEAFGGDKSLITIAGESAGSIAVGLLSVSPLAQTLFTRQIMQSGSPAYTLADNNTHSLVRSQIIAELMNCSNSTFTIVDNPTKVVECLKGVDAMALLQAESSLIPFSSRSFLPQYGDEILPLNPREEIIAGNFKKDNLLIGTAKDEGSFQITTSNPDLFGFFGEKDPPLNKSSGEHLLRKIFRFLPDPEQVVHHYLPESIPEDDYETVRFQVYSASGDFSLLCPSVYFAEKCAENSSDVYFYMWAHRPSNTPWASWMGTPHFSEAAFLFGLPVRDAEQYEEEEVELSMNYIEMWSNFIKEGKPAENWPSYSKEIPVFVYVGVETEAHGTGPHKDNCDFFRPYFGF
assay summary: Inhibition of enzyme activity (IC50) of PpAChE5
Assay type: biochemical
run parameters: PpAChE5, on ATC hydrolysis, 10 min preincubation with inhibitor
pIC50: −log10 of the molar value.
observable: pIC50

compound="C=CC[N+](C)(C)c1ccc(CCC(=O)CCc2ccc([N+](C)(C)CC=C)cc2)cc1.[Br-].[Br-] [BW284C51]" observable=pIC50 val=6.33
compound="CNC(=O)Oc1ccc2c(c1)[C@]1(C)CCN(C)[C@@H]1N2C [Eserine, eserine]" observable=pIC50 val=5.93
